Tested on: Plasmodium falciparum
protocol.text: Antiplasmodial activity against ring stage synchronized Plasmodium falciparum 3D7 infected in erythrocytes assessed as parasitemia level after 48 hrs by flow cytometry relative to control
Type: functional, organism-based
cond: 3D7, 48 h
Parameter pIC50: see the listing below.
Please treat pIC50 as minus the base-10 logarithm of the molar concentration.

CCCC(=O)NCCc1c[nH]c2ccc(OC)cc12
4.72
C[C@H]1Cc2c([nH]c3cc(Cl)c(F)cc23)[C@@]2(N1)C(=O)Nc1ccc(Cl)cc12 [CIPARGAMIN]
8.00
CCCCCC(=O)NCCc1c[nH]c2ccc(OC)cc12
4.72

Attention now turns to another entry.
Requested field: pIC50. Item: COc1ccc2[nH]cc(CCNC(=O)c3ccccc3)c2c1 5.53
